# subjectOfTest: LRRK2 (Homo sapiens (Human), UniProt Q5S007)
# Sequence (Q5S007 whole entry G2019S): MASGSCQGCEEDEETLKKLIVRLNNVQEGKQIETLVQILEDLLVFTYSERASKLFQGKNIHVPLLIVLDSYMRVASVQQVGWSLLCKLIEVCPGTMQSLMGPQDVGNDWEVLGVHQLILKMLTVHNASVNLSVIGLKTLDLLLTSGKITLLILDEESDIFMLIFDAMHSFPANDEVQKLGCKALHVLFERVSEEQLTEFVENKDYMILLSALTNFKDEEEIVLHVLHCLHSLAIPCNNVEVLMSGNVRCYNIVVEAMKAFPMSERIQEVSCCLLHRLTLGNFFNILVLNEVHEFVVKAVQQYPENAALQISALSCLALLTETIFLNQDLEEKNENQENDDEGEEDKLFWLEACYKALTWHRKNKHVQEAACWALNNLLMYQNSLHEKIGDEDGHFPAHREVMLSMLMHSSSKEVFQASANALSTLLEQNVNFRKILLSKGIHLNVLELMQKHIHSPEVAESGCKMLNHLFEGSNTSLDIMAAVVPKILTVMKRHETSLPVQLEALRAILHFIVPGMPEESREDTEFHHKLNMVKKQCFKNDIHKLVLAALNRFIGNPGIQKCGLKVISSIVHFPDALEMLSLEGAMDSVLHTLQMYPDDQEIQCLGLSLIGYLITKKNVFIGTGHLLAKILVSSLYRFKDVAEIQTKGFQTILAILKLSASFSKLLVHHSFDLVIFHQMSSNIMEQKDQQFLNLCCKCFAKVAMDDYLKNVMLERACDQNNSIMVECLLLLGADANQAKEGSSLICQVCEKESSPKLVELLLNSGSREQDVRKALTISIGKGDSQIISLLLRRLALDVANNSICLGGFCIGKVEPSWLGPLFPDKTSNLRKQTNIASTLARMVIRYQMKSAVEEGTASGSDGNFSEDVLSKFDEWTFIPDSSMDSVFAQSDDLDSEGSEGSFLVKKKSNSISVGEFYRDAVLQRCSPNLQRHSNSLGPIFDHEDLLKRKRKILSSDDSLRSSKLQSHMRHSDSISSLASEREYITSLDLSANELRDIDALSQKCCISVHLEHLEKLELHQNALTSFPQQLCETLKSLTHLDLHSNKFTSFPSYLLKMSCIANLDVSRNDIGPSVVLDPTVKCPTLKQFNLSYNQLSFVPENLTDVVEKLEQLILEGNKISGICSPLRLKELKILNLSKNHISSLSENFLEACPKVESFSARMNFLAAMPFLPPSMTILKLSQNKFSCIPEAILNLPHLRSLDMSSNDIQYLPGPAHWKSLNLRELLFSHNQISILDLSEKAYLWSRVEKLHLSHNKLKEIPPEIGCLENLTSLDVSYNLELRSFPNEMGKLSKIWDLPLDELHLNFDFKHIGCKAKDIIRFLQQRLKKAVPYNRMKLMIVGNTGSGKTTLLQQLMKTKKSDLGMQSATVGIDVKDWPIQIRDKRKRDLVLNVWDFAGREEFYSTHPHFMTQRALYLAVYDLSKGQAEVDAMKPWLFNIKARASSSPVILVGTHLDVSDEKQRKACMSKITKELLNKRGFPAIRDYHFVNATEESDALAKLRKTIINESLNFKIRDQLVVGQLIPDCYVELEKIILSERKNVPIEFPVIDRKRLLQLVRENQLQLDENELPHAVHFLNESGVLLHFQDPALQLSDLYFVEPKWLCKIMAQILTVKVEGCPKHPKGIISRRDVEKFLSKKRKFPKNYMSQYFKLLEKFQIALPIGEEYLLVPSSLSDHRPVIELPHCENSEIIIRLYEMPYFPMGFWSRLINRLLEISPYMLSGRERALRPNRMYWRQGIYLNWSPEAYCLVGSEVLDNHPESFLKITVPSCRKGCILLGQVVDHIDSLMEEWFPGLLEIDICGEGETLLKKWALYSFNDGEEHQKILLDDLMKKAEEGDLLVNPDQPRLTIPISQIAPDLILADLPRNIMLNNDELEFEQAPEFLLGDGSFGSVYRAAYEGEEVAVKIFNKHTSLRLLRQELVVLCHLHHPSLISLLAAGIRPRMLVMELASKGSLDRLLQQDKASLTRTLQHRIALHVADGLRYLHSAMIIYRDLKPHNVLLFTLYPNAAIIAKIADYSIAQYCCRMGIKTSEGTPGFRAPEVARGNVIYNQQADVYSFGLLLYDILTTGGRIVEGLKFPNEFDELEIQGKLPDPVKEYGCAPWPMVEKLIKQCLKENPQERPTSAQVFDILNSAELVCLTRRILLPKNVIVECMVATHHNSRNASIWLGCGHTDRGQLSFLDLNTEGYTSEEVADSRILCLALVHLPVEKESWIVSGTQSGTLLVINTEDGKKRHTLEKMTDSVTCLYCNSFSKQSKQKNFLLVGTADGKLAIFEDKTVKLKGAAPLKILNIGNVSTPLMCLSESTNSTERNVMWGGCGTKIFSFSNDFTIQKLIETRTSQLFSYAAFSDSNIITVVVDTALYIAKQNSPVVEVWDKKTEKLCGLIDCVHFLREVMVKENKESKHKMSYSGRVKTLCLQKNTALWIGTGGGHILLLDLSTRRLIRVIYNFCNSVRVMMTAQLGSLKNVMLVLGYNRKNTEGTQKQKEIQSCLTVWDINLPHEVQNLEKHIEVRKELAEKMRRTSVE
# assayNotes: In Vitro LRRK2 Assay (LabChip 3000, fluorescently-labeled peptide substrate)
# Type: biochemical
# conditionSet: ATP 130 μM, substrate 1 μM, 2 hours, ambient temperature; LRRK2 variant not given; read-out: Ki (μM), affinity values for LRRK2
The following compounds are shown together with reported Ki values.
Return type: number; implicit unit µM.

Some compounds with known Ki results, for comparison:
COCCOc1nccc2[nH]nc(-c3ccnc(N4CCOCC4)c3)c12 0.023
CC(C)c1nc(-c2n[nH]c3ccnc(NC4CCOCC4)c23)n[nH]1 0.007
N#Cc1cccc(-c2cc(-c3n[nH]c4ccnc(OC5CCOCC5)c34)ccn2)c1 0.009
CC(C)n1cc(-c2n[nH]c3ccnc(OC4CCOCC4)c23)cc1C(=O)N1CCOCC1 0.039

## Input Fill in: Ki of Cc1n[nH]c2ccnc(NC3CCOCC3)c12 is ___
## Output 0.13
